Target: Procathepsin L (Homo sapiens, UniProt P07711)
Sequence (P07711 whole entry): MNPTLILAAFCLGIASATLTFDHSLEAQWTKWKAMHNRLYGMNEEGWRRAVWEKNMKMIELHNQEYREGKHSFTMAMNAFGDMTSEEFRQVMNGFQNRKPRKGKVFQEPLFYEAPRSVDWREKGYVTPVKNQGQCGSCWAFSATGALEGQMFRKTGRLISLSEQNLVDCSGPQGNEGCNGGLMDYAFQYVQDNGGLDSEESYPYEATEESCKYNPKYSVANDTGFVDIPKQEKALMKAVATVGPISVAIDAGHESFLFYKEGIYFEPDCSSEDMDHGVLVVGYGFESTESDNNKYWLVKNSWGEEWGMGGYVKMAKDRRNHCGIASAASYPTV
Assay: Inhibitory constant against human cathepsin L using Z-Phe-Arg-AMC substrate
Conditions: read-out: Ki
MEASUREMENT LABEL: Ki (nM)

[
  {
    "CHEM SMILES": "CC(C)(C)NC1CCN(c2ccc(-c3ccc(C(=O)NC4(C(=O)NCC#N)CCCCC4)cc3)cc2)CC1",
    "STUDY TARGET": "Procathepsin L (Homo sapiens, UniProt P07711)",
    "READING UNIT": "nM",
    "OBSERVED RESULT": 1600
  }
]

====

The entries below come with measured Ki values attached.
Target: UniProtKB P25774
Sequence (P25774 whole entry): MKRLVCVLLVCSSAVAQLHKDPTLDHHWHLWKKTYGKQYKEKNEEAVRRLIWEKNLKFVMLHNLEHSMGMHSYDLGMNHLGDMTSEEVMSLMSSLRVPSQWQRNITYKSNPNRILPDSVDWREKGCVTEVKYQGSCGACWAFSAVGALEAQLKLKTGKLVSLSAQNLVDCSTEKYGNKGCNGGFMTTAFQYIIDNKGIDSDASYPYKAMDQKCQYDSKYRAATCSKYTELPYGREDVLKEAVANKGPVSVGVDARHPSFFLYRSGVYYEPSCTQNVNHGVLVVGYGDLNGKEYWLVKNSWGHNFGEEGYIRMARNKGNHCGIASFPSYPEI
Test: Inhibitory constant against human cathepsin S using Z-Val-Val-Arg-AMC substrate
Settings: read-out: Ki app
MEASUREMENT LABEL: Ki

[
  {
    "COMPOUND": "CN1CCN(N(C)c2nc(-c3ccc(C(=O)NC4(C(=O)NCC#N)CCCCC4)cc3)cs2)CC1",
    "OBSERVED RESULT": "21 µM"
  },
  {
    "COMPOUND": "N#CCNC(=O)C1(NC(=O)c2ccc(Br)cc2)CCCCC1",
    "OBSERVED RESULT": "10 µM"
  },
  {
    "COMPOUND": "N#CCNC(=O)C1(NC(=O)c2csc(-c3ccncc3)n2)CCCCC1",
    "OBSERVED RESULT": "4 µM"
  },
  {
    "COMPOUND": "CN1CCC(c2nc(-c3ccc(C(=O)NC4(C(=O)NCC#N)CCCCC4)cc3)cs2)CC1",
    "OBSERVED RESULT": "20 µM"
  },
  {
    "COMPOUND": "CC(C)C[C@H](NC(=O)OCc1ccccc1)C(=O)NCC#N",
    "OBSERVED RESULT": "0.143 µM"
  },
  {
    "COMPOUND": "N#CCNC(=O)[C@H](Cc1ccc2ccccc2c1)NC(=O)OCc1ccccc1",
    "OBSERVED RESULT": "0.18 µM"
  },
  {
    "COMPOUND": "N#CCNC(=O)C1(NC(=O)c2ccc(N)cc2)CCCCC1",
    "OBSERVED RESULT": "6.5 µM"
  },
  {
    "COMPOUND": "CN(C)C1CCN(c2nc(-c3ccc(C(=O)NC4(C(=O)NCC#N)CCCCC4)cc3)cs2)C1 (stereo not given)",
    "OBSERVED RESULT": "26 µM"
  },
  {
    "COMPOUND": "N#CCNC(=O)C1(NC(=O)c2ccc(-c3ccc(N4CCNCC4)cc3)cc2)CCCCC1",
    "OBSERVED RESULT": "4.9 µM"
  },
  {
    "COMPOUND": "CN(C)c1ccc(-c2ccc(C(=O)NC3(C(=O)NCC#N)CCCCC3)cc2)cc1",
    "OBSERVED RESULT": "5.7 µM"
  }
]

====

The entries below come with measured MRT values attached.
Tested on: Rattus norvegicus
Assay: Mean residence time in rat administered with 0.5 mg/kg, iv
Format: functional, organism-based
Set-up: dose 0.5 mg/kg
MEASUREMENT LABEL: MRT (min)

[
  {
    "CHEM SMILES": "N#CCNC(=O)C1(NC(=O)c2ccc(-c3csc(N4CC[C@@H](N)C4)n3)cc2)CCCCC1",
    "OBSERVED RESULT": 53.6
  },
  {
    "CHEM SMILES": "N#CCNC(=O)C1(NC(=O)c2ccc(-c3csc(N4CCN(C5CCOCC5)CC4)n3)cc2)CCCCC1",
    "OBSERVED RESULT": 59
  },
  {
    "CHEM SMILES": "CN1CCC(Oc2ccc(-c3ccc(C(=O)NC4(C(=O)NCC#N)CCCCC4)cc3)cc2)CC1",
    "OBSERVED RESULT": 114
  },
  {
    "CHEM SMILES": "N#CCNC(=O)C1(NC(=O)c2ccc(-c3csc(N4CCOCC4)n3)cc2)CCCCC1",
    "OBSERVED RESULT": 28
  },
  {
    "CHEM SMILES": "COCCN1CCN(c2nc(-c3ccc(C(=O)NC4(C(=O)NCC#N)CCCCC4)cc3)cs2)CC1",
    "OBSERVED RESULT": 41
  }
]

These data points were gathered from ChEMBL document CHEMBL1141198.
